- test-details: physchem
- run-parameters: pH 2.3
- Description: Dissociation constant, pKa of compound at pH 2.3 to 10.8 by pressure assisted capillary electrophoresis-MS analysis
readout-kind: pKa

For orientation, consider the following solved cases.
COc1cc(OC2CN(C(=O)c3nnc(-c4ccc(C(F)F)cc4)o3)C2)ccc1CN1CC2(COC2)C1    8.2
COc1ccc(CN2CCC3(CC2)COC3)cc1    8.56
O=C(c1nnc(-c2ccccc2)o1)N1CC(Oc2ccc(CN3CC4(COC4)C3)cc2Cl)C1    7.5

A. O=C(c1nnc(-c2ccccc2)o1)N1CC(Oc2ccc(CN3CC4(COC4)C3)cc2)C1
B. O=C(NC1C2CC3CC1CC(O)(C3)C2)c1cnc(NC2COC2)nc1C1CCCC1 (stereo not given)
Could you please tell me which of these two has the higher pKa: A or B ? Indicate your choice by writing its label.
A
(A: 8, B: 2.6)

###

- test-details: in vitro
- run-parameters: human, hepatocytes
- Description: Intrinsic clearance in human hepatocytes assessed per million cells at 50 uM in presence of NADPH by HPLC-MS analysis
readout-kind: hepatocyte CLint at 50 µM (µL/min/1e6 cells)

Here is how some molecules turned out for hepatocyte CLint at 50 µM.
COc1ccc(-c2nnc(C(=O)N3CC(Oc4ccc(CN5CC6(COC6)C5)c(C)c4)C3)o2)cc1    17
COc1cc(OC2CN(C(=O)c3nnc(-c4ccc(C(F)F)cc4)o3)C2)ccc1CN1CCCC12COC2    42.7
COc1cc(CN2CCCC23COC3)ccc1OC1CN(C(=O)c2nnc(-c3ccccc3)o2)C1    25
COc1ccc(-c2nnc(C(=O)N3CC(Oc4ccc(CN5CCCC56COC6)cc4)C3)o2)cc1    48.7
COc1ccc(-c2nnc(C(=O)N3CC(Oc4ccc(CN5CC6CC(C5)O6)cc4)C3)o2)cc1    38

I. O=C(c1nnc(-c2ccc(OC(F)F)cc2)o1)N1CC(Oc2ccc(CN3CC4(COC4)C3)cc2)C1
II. COc1ccc(-c2nnc(C(=O)N3CC(Oc4ccc(CN5CC6(COC6)C5)cc4C)C3)o2)cc1
III. COc1ccc(-c2nnc(C(=O)N3CC(Oc4ccc(CN5CC6(CCOC6)C5)cc4)C3)o2)cc1
Ordering criterion: hepatocyte CLint at 50 µM; begin with the maximum. Give the labels in the order specified.
I, II, III
(I: 27.2 µL/min/1e6 cells, II: 18.6 µL/min/1e6 cells, III: 10.8 µL/min/1e6 cells)

###

- test-details: physchem
- run-parameters: octanol/water, pH 7.4
- Description: Octanol-water distribution coefficient, log D of the compound at pH 7.4 by RP-HPLC analysis
readout-kind: logD

COc1cc(OC2CN(C(=O)c3nnc(-c4ccc(C(F)F)cc4)o3)C2)ccc1CN1CC2(COC2)C1    2.1
O=C(c1nnc(-c2ccc(C(F)F)cc2)o1)N1CC(Oc2ccc(CN3CC4(COC4)C3)cc2)C1    2.4
COc1ccc(CN2CCCC3(COC3)C2)cc1    1.5

###

- test-details: physchem
- run-parameters: buffer, pH 7.4
- Description: Aqueous solubility of the compound in pH 7.4 HBSS buffer HPLC-MS analysis
readout-kind: solubility (µM)

The following compounds have reported results that may help.
COc1ccc(-c2nnc(C(=O)N3CC(Oc4ccc(CN5CC6(COC6)C5)c(C)c4)C3)o2)cc1    73
COc1ccc(-c2nnc(C(=O)N3CC(Oc4ccc(CN5CC6(CCOC6)C5)cc4)C3)o2)cc1    82

1. COc1ccc(-c2nnc(C(=O)N3CC(Oc4ccc(CN5CC6(CCCO6)C5)cc4)C3)o2)cc1
2. COc1cc(OC2CN(C(=O)c3nnc(-c4ccc(C(F)F)cc4)o3)C2)ccc1CN1CC2(COC2)C1
1 or 2 : whose solubility is greater? Field: selected label. Fill in the label of the entry you choose.
1
(1: 495 µM, 2: 87 µM)

###

- test-details: in vitro
- run-parameters: human, hepatocytes
readout-kind: hepatocyte CLint at 50 µM (µL/min/1e6 cells)

COc1cc(CN2CCCC23COC3)ccc1OC1CN(C(=O)c2nnc(-c3ccc(C(F)F)cc3)o2)C1    38.5
O=C(c1nnc(-c2ccccc2)o1)N1CC(Oc2ccc(CN3CC4(COC4)C3)cc2Cl)C1    12.4
O=C(c1nnc(-c2ccccc2)o1)N1CC(Oc2ccc(CN3CC4(COC4)C3)cc2)C1    6.1
O=C(c1nnc(-c2ccccc2)o1)N1CC(Oc2ccc(CN3CC4(COC4)C3)c(Cl)c2)C1    32.7
COc1cc(CN2CC3(COC3)C2)ccc1OC1CN(C(=O)c2nnc(-c3ccc(C(F)F)cc3)o2)C1    19.5

I. COc1cc(OC2CN(C(=O)c3nnc(-c4ccccc4)o3)C2)ccc1CN1CCCC12COC2
II. COc1ccc(-c2nnc(C(=O)N3CC(Oc4ccc(CN5CC6(CCCO6)C5)cc4)C3)o2)cc1
III. O=C(c1nnc(-c2ccc(C(F)F)cc2)o1)N1CC(Oc2ccc(CN3CC4(COC4)C3)cc2)C1
IV. O=C(c1nnc(-c2ccc(F)cc2)o1)N1CC(Oc2ccc(CN3CC4(COC4)C3)cc2)C1
Rank the items in ascending order with respect to hepatocyte CLint at 50 µM. In your reply, arrange the labels in the requested order.
IV, III, II, I

###

- test-details: in vitro
- run-parameters: human, liver microsomes
- Description: Intrinsic clearance in human liver microsomes at 50 uM in presence of NADPH by HPLC-MS analysis
readout-kind: microsomal CLint at 50 µM (µL/min/mg)

# annotated cases, reported microsomal CLint at 50 µM shown
COc1ccc(CN2CCC3(CC2)COC3)cc1    20.6
COc1ccc(CN2CCCC23COC3)cc1    8.1
O=C(NC1C2CC3CC1CC(O)(C3)C2)c1cnc(OC2COC2)nc1C1CCC1 (configuration not stated)    6.1

A. O=C(NC1C2CC3CC1CC(O)(C3)C2)c1cnc(OC2COC2)nc1C1CCCC1 (configuration not stated)
B. COc1ccc(-c2nnc(C(=O)N3CC(Oc4ccc(CNCC5(C)COC5)cc4)C3)o2)cc1
Lowest microsomal CLint at 50 µM? choose A or B Lab note: record the label of whichever item you select.
A

###

- test-details: physchem
- run-parameters: buffer, pH 7.4
readout-kind: solubility (µM)

COc1cc(OC2CN(C(=O)c3nnc(-c4ccc(C(F)F)cc4)o3)C2)ccc1CN1CCCC12COC2    43
COc1ccc(-c2nnc(C(=O)N3CC(Oc4ccc(CN5CCCC56COC6)cc4)C3)o2)cc1    3

a. O=C(c1nnc(-c2ccc(F)cc2)o1)N1CC(Oc2ccc(CN3CC4(COC4)C3)cc2)C1
b. O=C(NC1C2CC3CC1CC(O)(C3)C2)c1cnc(OC2COC2)nc1C1CCCC1 (stereo not given)
c. COc1cc(OC2CN(C(=O)c3nnc(-c4ccccc4)o3)C2)ccc1CN1CCCC12COC2
d. COc1cc(CN2CCCC23COC3)ccc1OC1CN(C(=O)c2nnc(-c3ccccc3)o2)C1
e. O=C(c1nnc(-c2ccccc2)o1)N1CC(Oc2ccc(CN3CC4(COC4)C3)c(Cl)c2)C1
Please give the order of these compounds when sorted by solubility, largest value leading. Would you mind listing the labels in the order requested?
a, b, d, e, c

A. O=C(NC1C2CC3CC1CC(O)(C3)C2)c1cnc(OC2COC2)nc1C1CC1 (stereo not given)
B. O=C(c1nnc(-c2ccccc2)o1)N1CC(Oc2ccc(CN3CC4(COC4)C3)cc2Cl)C1
C. COc1cc(CN2CCCC23COC3)ccc1OC1CN(C(=O)c2nnc(-c3ccc(C(F)F)cc3)o2)C1
D. COc1ccc(-c2nnc(C(=O)N3CC(Oc4ccc(CN5CC6CC(C5)O6)cc4)C3)o2)cc1
E. O=C(NC1C2CC3CC1CC(O)(C3)C2)c1cnc(NC2COC2)nc1C1CC1 (stereo not given)
Endpoint returns the given compounds ordered by ascending solubility. Present the labels in the sequence the task asks for.
D, C, B, E, A
(D: 3 µM, C: 39 µM, B: 76 µM, E: 580 µM, A: 867 µM)

P. COc1cc(CN2CC3(COC3)C2)ccc1OC1CN(C(=O)c2nnc(-c3ccc(C(F)F)cc3)o2)C1
Q. O=C(c1nnc(-c2ccc(OC(F)F)cc2)o1)N1CC(Oc2ccc(CN3CC4(COC4)C3)cc2)C1
Of the pair P and Q , name the member with the lesser recorded solubility. Identify your selection by its label.
Q

I. COc1ccc(-c2nnc(C(=O)N3CC(Oc4ccc(CNCC5(C)COC5)cc4)C3)o2)cc1
II. COc1ccc(CN2CCCC23COC3)cc1
III. O=C(c1nnc(-c2ccccc2)o1)N1CC(Oc2ccc(CN3CC4(COC4)C3)cc2)C1
IV. COc1ccc(-c2nnc(C(=O)N3CC(Oc4ccc(COCC5(C)COC5)cc4)C3)o2)cc1
Put these in order: smallest solubility first, largest last. To answer, arrange all of the labels according to the requested order.
IV, I, III, II

I. COc1ccc(CN2CCC3(CC2)COC3)cc1
II. O=C(c1nnc(-c2ccc(C(F)F)cc2)o1)N1CC(Oc2ccc(CN3CC4(COC4)C3)cc2)C1
Hey, between I and II which has a smaller measured solubility? // output: label of the selected item
II

###

- test-details: physchem
- run-parameters: octanol/water, pH 7.4
readout-kind: logD

Examples with their reported logD follow.
O=C(NC1C2CC3CC1CC(O)(C3)C2)c1cnc(NC2COC2)nc1C1CCCC1 (stereo not given)    2.1
COc1cc(CN2CC3(COC3)C2)ccc1OC1CN(C(=O)c2nnc(-c3ccc(C(F)F)cc3)o2)C1    2.2

a. O=C(c1nnc(-c2ccc(F)cc2)o1)N1CC(Oc2ccc(CN3CC4(COC4)C3)cc2)C1
b. COc1cc(CN2CCCC23COC3)ccc1OC1CN(C(=O)c2nnc(-c3ccccc3)o2)C1
Between a and b , whose measured logD reads higher? Which one? Tell me its label.
b
(b: 3.5, a: 2)
